Assay: Intra-pulmonary steady-state concentrations (plasma, ELF, alveolar cells) after multiple IV doses in healthy adult subjects
Assay type: in vivo, human
Conditions: human, in vivo, Total-drug AUC72-96, ELF (Median)
quantity.measured: AUC (ng·h/mL)

>  <molecule>
CN(C)c1cc(CNCC(C)(C)C)c(O)c2c1C[C@H]1C[C@H]3C(N(C)C)C(O)=C(C(N)=O)C(=O)[C@@]3(O)C(O)=C1C2=O (stereo partly shown)

>  <quantity.measured>
AUC

>  <quantitative.readout>
18500

$$$$

---

Experiment: Intra-pulmonary steady-state concentrations (plasma, ELF, alveolar cells) after multiple IV doses in healthy adult subjects
Assay type: in vivo, human
Conditions: human, in vivo, Alveolar Macrophages (AM) concentration (mean ± SD)
quantity.measured: concentration at 24 h (ng/mL)

>  <molecule>
CN(C)c1cc(CNCC(C)(C)C)c(O)c2c1C[C@H]1C[C@H]3C(N(C)C)C(O)=C(C(N)=O)C(=O)[C@@]3(O)C(O)=C1C2=O (stereo partly shown)

>  <quantity.measured>
concentration at 24 h

>  <quantitative.readout>
10400

$$$$
